src = paper PMC11578313

Give pEC50 for every item shown.
# Tested on: SARS‐CoV‐2
# assay comment: microbe, parasite or virus in culture
# Format: cell-based
# measurement parameters: Severe acute respiratory syndrome coronavirus 2; Vero cells, without CP‐100356; read-out: EC50 ± SD, Vero cells, without P‐gp inhibitor
Give bare numbers, as −log10 of the molar value.

Please review the entries below; each comes with its answer.
> print(dat)
                                   molecule  recorded.metric  reported.value
1  Cc1cncc(C(=O)N2C[C@H]3CC[C@@H](C2)N3C(c2cccc(F)c2)c2cn(Cc3cccc(F)c3)nn2)c1 (stereo partly drawn)            pEC50            5.38
2  COC(=O)CCCn1cc(C(c2cccc(F)c2)N2[C@@H]3CC[C@H]2CN(C(=O)c2cncc(C)c2)C3)nn1 (stereo partly drawn)            pEC50            5.73
3  Cc1cncc(C(=O)N2C[C@H]3CC[C@@H](C2)N3C(c2cccc(F)c2)c2cn(CCc3ccccc3)nn2)c1 (stereo partly drawn)            pEC50            5.70
4  Cc1cncc(C(=O)N2C[C@H]3CC[C@@H](C2)N3C(c2cccc(F)c2)c2cn(C[S+]([O-])c3ccccc3)nn2)c1 (stereo partly drawn)            pEC50            5.44

For each of the molecules below, state pEC50.
1. Cc1cncc(C(=O)N2C[C@H]3CC[C@@H](C2)N3C(c2cccc(F)c2)c2cn(Cc3ccc(S(C)(=O)=O)cc3)nn2)c1 (stereo partly drawn)
2. Cc1cncc(C(=O)N2C[C@H]3CC[C@@H](C2)N3C(c2cccc(F)c2)c2cn(Cc3cccc([N+](=O)[O-])c3)nn2)c1 (stereo partly drawn)

[reply]
[4.44, 5.75]

* * *

# assay comment: In vivo pharmacokinetic study in male ICR mice (compound alone)
# measurement parameters: male, ICR, mouse, plasma, iv, 2 mg/kg, IV 2 mg/kg, individual mice 1-3; read-out: Lambda_z (converted)
# Description: The pharmacokinetics profile of the newly developed antiviral compound C5N17B was subsequently evaluated in male ICR mice that were free from specific pathogens, aiming to assess its potential for therapeutic application in vivo. A total of six male ICR mice were randomly assigned to two groups. […] All samples were quantified using an LC‐MS/MS‐AR Triple Quad 5500+ (SCIEX, USA) and the ExionLC liquid phase system. […] The pharmacokinetic parameters were calculated by WinNolin 8.2 software.
recorded metric: k el (s⁻¹)
Numbers only, in s⁻¹.

[ask] Field request: k el | item: Cc1cncc(C(=O)N2C[C@H]3CC[C@@H](C2)N3[C@H](c2cccc(F)c2)c2cn(CCc3ccsc3)nn2)c1 [Compound C5N17B]
[reply] 0.00179

* * *

# assay comment: in vivo
# measurement parameters: male, ICR, mouse, po, 10 mg/kg, Cmax, Mean, C5N17B+Ritonavir, PO 10 mg/kg, mean of 3 mice
recorded metric: Cmax (ng/mL)
One number for each entry, in ng/mL.

[ask] GET /values?readout=Cmax&item= Cc1cncc(C(=O)N2C[C@H]3CC[C@@H](C2)N3[C@H](c2cccc(F)c2)c2cn(CCc3ccsc3)nn2)c1 [Compound C5N17B]
[reply] 2300

* * *

# assay comment: in vivo
# measurement parameters: male, ICR, mouse, po, 10 mg/kg, Plasma concentration, Mean, C5N17B+Ritonavir, PO 10 mg/kg, 2 h, mean of mice 1#-3#
recorded metric: concentration at 2 h
Just the number plus its unit, please.

[ask] Recorded concentration at 2 h for Cc1cncc(C(=O)N2C[C@H]3CC[C@@H](C2)N3[C@H](c2cccc(F)c2)c2cn(CCc3ccsc3)nn2)c1 [Compound C5N17B] , please?
[reply] 2110 ng/mL

* * *

# assay comment: In vivo pharmacokinetic study in male ICR mice (compound alone)
# measurement parameters: male, ICR, mouse, plasma, po, 10 mg/kg, PO 10 mg/kg, individual mice 4-6; read-out: AUClast
recorded metric: AUC(0-t) (ng·h/mL)
One number for each entry, in ng·h/mL.

[ask] Can you look up the measured AUC(0-t) of Cc1cncc(C(=O)N2C[C@H]3CC[C@@H](C2)N3[C@H](c2cccc(F)c2)c2cn(CCc3ccsc3)nn2)c1 [Compound C5N17B] for me?
[reply] 30.4

* * *

# assay comment: In vivo pharmacokinetic study in male ICR mice (compound alone)
# measurement parameters: male, ICR, mouse, plasma, po, 10 mg/kg, PO 10 mg/kg, individual mice 4-6; read-out: Tmax
recorded metric: Tmax (min)
One number for each entry, in min.

[ask] So what does the record say about Tmax for Cc1cncc(C(=O)N2C[C@H]3CC[C@@H](C2)N3[C@H](c2cccc(F)c2)c2cn(CCc3ccsc3)nn2)c1 [Compound C5N17B] ?
[reply] 5

* * *

# assay comment: in vivo
# measurement parameters: male, ICR, mouse, po, 10 mg/kg, MRT0-∞, Mean, C5N17B+Ritonavir, PO 10 mg/kg, mean of 3 mice
recorded metric: MRT inf (h)
Answers are plain numbers, in h.

[ask] Value lookup for MRT inf; key = Cc1cncc(C(=O)N2C[C@H]3CC[C@@H](C2)N3[C@H](c2cccc(F)c2)c2cn(CCc3ccsc3)nn2)c1 [Compound C5N17B]
[reply] 4.88

* * *

# assay comment: In vivo pharmacokinetic study in male ICR mice (compound alone)
# measurement parameters: male, ICR, mouse, plasma, po, 10 mg/kg, PO 10 mg/kg, mean of mice 4#-6#; read-out: MRT0-∞, Mean
recorded metric: MRT inf (h)
One number for each entry, in h.

[ask] # input compound: Cc1cncc(C(=O)N2C[C@H]3CC[C@@H](C2)N3[C@H](c2cccc(F)c2)c2cn(CCc3ccsc3)nn2)c1 [Compound C5N17B] ; wanted: its MRT inf
[reply] 5

* * *

# assay comment: In vivo pharmacokinetic study in male ICR mice (compound alone)
# measurement parameters: male, ICR, mouse, plasma, iv, 2 mg/kg, IV 2 mg/kg, individual mice 1-3; read-out: Clast
recorded metric: concentration at 0.5 h (ng/mL)
Numbers only, in ng/mL.

[ask] # query: concentration at 0.5 h of entry Cc1cncc(C(=O)N2C[C@H]3CC[C@@H](C2)N3[C@H](c2cccc(F)c2)c2cn(CCc3ccsc3)nn2)c1 [Compound C5N17B]
[reply] 18.4

* * *

# Test system: SARS‐CoV‐2
# assay comment: microbe, parasite or virus in culture
# Assay type: cell-based
# measurement parameters: Severe acute respiratory syndrome coronavirus 2; Vero cells, with CP‐100356; read-out: EC50 ± SD, Vero cells, with P‐gp inhibitor
For each record, write down the corresponding EC50.
One number for each entry, in nM.

Some solved entries appear below for comparison.
> print(dat)
                                   compound  recorded.metric  reported.value
1  O=C(c1cccnc1)N1CCN(C(c2cccc(F)c2)c2cn(CCc3ccsc3)nn2)CC1 (stereo not shown)             EC50            2460
2  Cc1cncc(C(=O)N2C[C@H]3CC[C@@H](C2)N3C(c2cccc(F)c2)c2cn(CS(=O)(=O)c3ccccc3)nn2)c1 (stereo partly shown)             EC50            3050
3  O=C(NCc1cccs1)C1CN(C(=O)c2cccnc2)CCN1c1ccc(Cl)c(Cl)c1 (stereo not shown) [GC‐14, reference compound]             EC50            3420
4  Cc1cncc(C(=O)N2C[C@H]3CC[C@@H](C2)N3C(c2cccc(F)c2)c2cn(Cc3cccc(F)c3)nn2)c1 (stereo partly shown)             EC50            2860
5  Cc1cncc(C(=O)N2C[C@H]3CC[C@@H](C2)N3C(c2cccc(F)c2)c2cn(C[S+]([O-])c3ccccc3)nn2)c1 (stereo partly shown)             EC50            2270

[ask] If you can, please state the reported EC50 value of Cc1cncc(C(=O)N2C[C@H]3CC[C@@H](C2)N3C(c2cccc(F)c2)c2cn(CC(N)=O)nn2)c1 (stereo partly shown) .
[reply] 1390

* * *

# Tested on: SARS‐CoV‐2
# assay comment: microbe, parasite or virus in culture
# Type: cell-based
# measurement parameters: Severe acute respiratory syndrome coronavirus 2, Vero, read-out: EC50 ± SD, Vero cells, with P‐gp inhibitor
recorded metric: EC50

molecule	system	EC50
CC(C)(C)[C@H](NC(=O)C(F)(F)F)C(=O)N1C[C@H]2[C@@H]([C@H]1C(=O)N[C@H](C#N)C[C@@H]1CCNC1=O)C2(C)C [Nirmatrelvir, reference compound]	SARS‐CoV‐2	< 46 nM

We now examine a further molecule.
[ask] I'd like to know its EC50. The molecule in question is Cn1cnc(Cn2c(=O)[nH]/c(=N\c3cc4cn(C)nc4cc3Cl)n(Cc3cc(F)c(F)cc3F)c2=O)n1 [Ensitrelvir, reference compound]
[reply] < 46 nM

* * *

# System: HCoV‐NL63
# assay comment: microbe, parasite or virus in culture
# Format: cell-based
# measurement parameters: Human coronavirus NL63, LLC-MK2, read-out: EC50 ± SD, HCoV‐NL63
recorded metric: EC50

Could I get EC50 for every one of these entries?
1. Cc1cncc(C(=O)N2C[C@H]3CC[C@@H](C2)N3[C@H](c2cccc(F)c2)c2cn(CCc3ccsc3)nn2)c1 [Compound C5N17B]
2. CC(C)(C)[C@H](NC(=O)C(F)(F)F)C(=O)N1C[C@H]2[C@@H]([C@H]1C(=O)N[C@H](C#N)C[C@@H]1CCNC1=O)C2(C)C [Nirmatrelvir, reference compound]

[reply]
1: > 100 µM; 2: > 100 µM
